Target Or Test System: JAK3 (Homo sapiens, UniProt P52333)
Sequence (P52333 1-1124): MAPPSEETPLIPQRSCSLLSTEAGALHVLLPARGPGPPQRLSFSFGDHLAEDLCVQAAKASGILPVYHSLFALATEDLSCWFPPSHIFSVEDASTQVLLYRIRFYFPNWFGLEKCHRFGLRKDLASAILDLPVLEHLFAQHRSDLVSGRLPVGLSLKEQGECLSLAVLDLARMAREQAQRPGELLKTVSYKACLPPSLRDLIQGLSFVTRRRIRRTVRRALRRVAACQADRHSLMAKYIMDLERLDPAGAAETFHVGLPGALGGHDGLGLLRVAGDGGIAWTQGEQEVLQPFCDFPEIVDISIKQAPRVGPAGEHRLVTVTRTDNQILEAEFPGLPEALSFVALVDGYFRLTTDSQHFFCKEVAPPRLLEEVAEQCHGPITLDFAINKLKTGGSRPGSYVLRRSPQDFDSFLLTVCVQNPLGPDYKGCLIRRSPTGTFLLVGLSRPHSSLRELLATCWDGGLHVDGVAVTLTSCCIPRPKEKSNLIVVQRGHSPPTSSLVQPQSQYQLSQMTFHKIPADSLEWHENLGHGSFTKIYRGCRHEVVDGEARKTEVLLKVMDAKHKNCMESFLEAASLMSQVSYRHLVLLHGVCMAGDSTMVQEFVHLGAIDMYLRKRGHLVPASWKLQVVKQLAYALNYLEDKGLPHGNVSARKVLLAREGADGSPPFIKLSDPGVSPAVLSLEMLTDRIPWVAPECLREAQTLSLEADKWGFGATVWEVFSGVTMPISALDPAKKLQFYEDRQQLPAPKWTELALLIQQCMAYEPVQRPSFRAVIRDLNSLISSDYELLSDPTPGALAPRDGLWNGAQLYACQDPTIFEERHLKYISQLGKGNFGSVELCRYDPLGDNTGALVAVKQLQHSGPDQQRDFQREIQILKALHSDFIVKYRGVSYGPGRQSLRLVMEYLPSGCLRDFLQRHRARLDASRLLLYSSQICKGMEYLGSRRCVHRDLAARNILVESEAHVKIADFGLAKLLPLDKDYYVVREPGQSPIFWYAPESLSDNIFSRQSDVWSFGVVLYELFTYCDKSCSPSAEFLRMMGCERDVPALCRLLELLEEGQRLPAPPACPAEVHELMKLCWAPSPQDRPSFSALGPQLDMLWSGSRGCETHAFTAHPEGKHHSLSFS
Experiment Description: JAK3 inhibition assay (33P incorporation into poly(Glu)4Tyr)
Type: biochemical
Condition Notes: Table 6; enzyme inhibition data (Ki)
Experimental Endpoint: Ki

// below: answered compounds
- Smiles Representation: "CS(=O)(=O)Nc1ccccc1-c1ccnc2[nH]ccc12"
  Result: "> 5000 nM"
- Smiles Representation: "N#CCN(Cc1cccc(Cl)c1)C(=O)c1cc(-c2c(F)cnc3[nH]ccc23)c[nH]1"
  Result: "< 500 nM"
- Smiles Representation: "Fc1cnc2[nH]ccc2c1-c1ccc(CN(CCC(F)(F)F)CC2CC2)o1"
  Result: "< 500 nM"
- Smiles Representation: "C#CCOC(=O)N1CC[C@H](Nc2c(Cl)cnc3[nH]ccc23)C1"
  Result: "< 500 nM"

-- ask Give reported Ki value for CN(CC(F)(F)F)C(=O)c1cc(-c2ccnc3[nH]ccc23)c[nH]1
-- reply < 500 nM

----------
Target Or Test System: JAK3 (Homo sapiens, UniProt P52333)
Sequence (P52333 1-1124): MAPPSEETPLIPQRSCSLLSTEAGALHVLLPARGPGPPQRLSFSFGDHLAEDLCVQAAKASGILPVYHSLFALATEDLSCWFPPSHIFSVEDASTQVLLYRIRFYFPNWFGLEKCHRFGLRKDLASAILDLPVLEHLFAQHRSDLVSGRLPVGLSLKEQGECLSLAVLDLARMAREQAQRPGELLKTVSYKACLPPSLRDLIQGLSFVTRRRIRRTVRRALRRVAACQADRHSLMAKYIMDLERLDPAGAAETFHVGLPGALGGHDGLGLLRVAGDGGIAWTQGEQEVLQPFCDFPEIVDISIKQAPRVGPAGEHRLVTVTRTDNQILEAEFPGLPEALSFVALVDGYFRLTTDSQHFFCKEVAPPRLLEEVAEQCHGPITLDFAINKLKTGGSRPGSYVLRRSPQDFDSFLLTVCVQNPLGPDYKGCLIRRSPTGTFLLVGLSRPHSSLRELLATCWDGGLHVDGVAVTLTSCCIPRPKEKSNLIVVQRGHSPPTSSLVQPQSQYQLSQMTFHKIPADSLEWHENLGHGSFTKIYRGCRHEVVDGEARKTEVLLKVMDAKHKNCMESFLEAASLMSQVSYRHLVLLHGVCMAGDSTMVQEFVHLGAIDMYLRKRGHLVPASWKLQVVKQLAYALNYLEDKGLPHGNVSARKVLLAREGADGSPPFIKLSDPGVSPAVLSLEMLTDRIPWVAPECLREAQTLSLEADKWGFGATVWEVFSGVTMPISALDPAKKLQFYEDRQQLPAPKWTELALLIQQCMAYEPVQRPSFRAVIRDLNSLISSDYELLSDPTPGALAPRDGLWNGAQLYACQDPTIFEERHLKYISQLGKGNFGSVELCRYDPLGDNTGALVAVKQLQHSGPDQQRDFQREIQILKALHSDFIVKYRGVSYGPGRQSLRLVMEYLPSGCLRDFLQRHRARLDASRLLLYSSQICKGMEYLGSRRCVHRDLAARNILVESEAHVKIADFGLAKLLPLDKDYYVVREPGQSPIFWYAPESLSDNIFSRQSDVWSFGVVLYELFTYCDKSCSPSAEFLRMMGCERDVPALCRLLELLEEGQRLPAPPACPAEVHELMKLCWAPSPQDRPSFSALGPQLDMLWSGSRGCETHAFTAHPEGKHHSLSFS
Experiment Description: JAK3 inhibition assay (33P incorporation into poly(Glu)4Tyr)
Type: biochemical
Condition Notes: enzyme inhibition, Table 5
Overview of reported Ki across a group of compounds:

// below: answered compounds
- Compound: "Clc1cnc2[nH]ccc2c1NC1CCCCC1"
  Result: "< 500 nM"
- Compound: "c1cc(NCc2ccc3c(c2)OCO3)nc(-c2ccnc3[nH]ccc23)c1"
  Result: "500 to 5000 nM"
- Compound: "CCN(CC)c1cccc(-c2ccnc3[nH]ccc23)n1"
  Result: "< 500 nM"

-- ask Give reported Ki value for COC[C@@H]1CCCN1C(=O)c1ccc(-c2ccnc3[nH]ccc23)s1
-- reply 500 to 5000 nM

-- ask Give reported Ki value for CN(CCC(O)c1ccccc1)c1cccc(-c2ccnc3[nH]ccc23)n1 (centres unmarked)
-- reply 500 to 5000 nM

-- ask Give reported Ki value for O=C(NCCO)c1ccc(-c2ccnc3[nH]ccc23)s1
-- reply < 500 nM

Data credit: patent US8921376B2
